System: TS HT1080 #12
Experiment: Cyquant and crystal violet cytotoxicity
Assay type: cell-based, human
Conditions: TS HT1080 #12, tumor - fibrosarcoma, high TS transfectant; 72 hour incubation
Procedure: Cvquant and Crystal Violet Cytotoxicity Exponentially growing cells were transferred at a density of 1.0-4.0×10^3 cells per well to a 96-well tissue culture plate in growth medium (RPMI1640+10% FBS+antibiotics). Cells were allowed to attach for 24 hours in standard culture conditions (37° C., 5% CO2, 95% humidity). Experimental compounds were then applied in duplicate half log serial dilutions. […] Absorbence or fluorescence, respectively, was monitored. […]
pIC50: −log10 of the molar value.
readout kind: pIC50

O=c1[nH]cc(F)c(=O)[nH]1 [5-FU, reference compound] = 5.46

====

Tested on: H630-R10
Test: Cyquant and crystal violet cytotoxicity
Type: cell-based
Details: H630-R10, tumor - colon, 5-FU resistant, high TS; 72 hour incubation
readout kind: IC50 (µM)

O=c1[nH]c(=O)n([C@H]2C[C@H](O)[C@@H](CO)O2)cc1/C=C/Br [BVdU, (E)-5-(2-bromovinyl)-2′-deoxyuridine] = 561
O=c1[nH]cc(F)c(=O)[nH]1 [5-FU, reference compound] = 143

====

Test system: MCF7 TDX
Assay: alamarBlue cytotoxicity assay
Format: cell-based
Conditions: alamarBlue, drug exposure 120 hours, Tomudex resistant breast tumor cell line
readout kind: IC50 (nM)

C[C@H](NP(=O)(OC[C@H]1O[C@@H](n2cc(/C=C/Br)c(=O)[nH]c2=O)C[C@@H]1O)Oc1ccccc1)C(=O)O (stereo partly shown) [NB1011, reference compound] = 130

====

Test system: MCF7 TDX
Assay: alamarBlue cytotoxicity assay
Type: cell-based
Conditions: Homo sapiens, MCF7; alamarBlue, Tomudex resistant breast cancer cell line
readout kind: IC50 (nM)

O=c1[nH]c(=O)n([C@H]2C[C@H](O)[C@@H](CO)O2)cc1/C=C/Br [BVdU, (E)-5-(2-bromovinyl)-2′-deoxyuridine] = 5

====

Test system: SKBR3 #52
Assay: Cyquant and crystal violet cytotoxicity
Format: cell-based
Settings: Homo sapiens, SK-BR-3; SKBR3 #52, tumor - breast, high TS transfectant; 72 hour incubation
readout kind: IC50 (µM)

O=c1[nH]c(=O)n([C@H]2C[C@H](O)[C@@H](CO)O2)cc1/C=C/Br [BVdU, (E)-5-(2-bromovinyl)-2′-deoxyuridine] = 8.3

====

Test system: SKBR3 V
Experiment: Cyquant and crystal violet cytotoxicity
Assay type: cell-based
Conditions: Homo sapiens, SK-BR-3, tumor - breast, vector control, low TS, 72 hour incubation
readout kind: IC50

O=c1[nH]c(=O)n([C@H]2C[C@H](O)[C@@H](CO)O2)cc1/C=C/Br [BVdU, (E)-5-(2-bromovinyl)-2′-deoxyuridine] = > 1000 µM

====

Test system: Det 551
Experiment: Cyquant and crystal violet cytotoxicity
Format: cell-based
Conditions: Det 551, normal embryonic skin; 72 hour incubation
pIC50: −log10 of the molar value.
readout kind: pIC50

O=c1[nH]cc(F)c(=O)[nH]1 [5-FU, reference compound] = 5.51
O=c1[nH]c(=O)n([C@H]2C[C@H](O)[C@@H](CO)O2)cc1/C=C/Br [BVdU, (E)-5-(2-bromovinyl)-2′-deoxyuridine] = 2.66

====

Test system: TKC HT1080 #22
Test: Sensitivity of thymidine kinase transfected HT1080 cell lines to BVdU
Assay type: cell-based
Conditions: Homo sapiens, HT-1080; TKC HT1080 #22, TK protein level 400 units
Source text: Cell lines that overexpress human thymidine kinase (TK) are also more sensitive to BVdU, providing another criterion for identification of tumor susceptibility to BVdU.
readout kind: IC50 (µM)

O=c1[nH]c(=O)n([C@H]2C[C@H](O)[C@@H](CO)O2)cc1/C=C/Br [BVdU, (E)-5-(2-bromovinyl)-2′-deoxyuridine] = 162

Data provenance is patent US20070155673A1.
